# ASSAY SYSTEM: hROMK (hKir1.1) (Homo sapiens (Human), UniProt P48048)
# Sequence (P48048 whole entry): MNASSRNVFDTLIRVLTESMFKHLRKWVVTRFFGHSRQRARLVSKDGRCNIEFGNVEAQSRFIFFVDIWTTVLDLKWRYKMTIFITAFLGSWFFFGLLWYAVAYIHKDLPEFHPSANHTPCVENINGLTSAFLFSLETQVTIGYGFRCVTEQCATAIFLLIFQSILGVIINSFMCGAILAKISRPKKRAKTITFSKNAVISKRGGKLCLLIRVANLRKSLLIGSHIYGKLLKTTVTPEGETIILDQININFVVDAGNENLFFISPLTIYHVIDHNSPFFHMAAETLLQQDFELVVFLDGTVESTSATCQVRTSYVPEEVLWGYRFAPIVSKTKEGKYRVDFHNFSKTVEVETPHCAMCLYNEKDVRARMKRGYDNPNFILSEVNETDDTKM
# MEASUREMENT DESCRIPTION: Thallium Flux Assay (ROMK channel functional thallium flux, FLIPR-Tetra)
# Type: cell-based
# RUN PARAMETERS: Thallium Flux IC50, HEK293 cells stably expressing hROMK (hKir1.1)
pIC50: −log10 of the molar value. Structures can show the parent of a compound that is named as a salt.
Each entry below carries its recorded pIC50.
MEASURED ENDPOINT: pIC50

[[record]]
compound = "Cc1cc2c(cc1C(O)CN1CCN3C[C@H](c4ccc(F)c(C#N)c4C)OC[C@@H]3C1)COC2=O (single isomer, unassigned) [Example 26, trifluoroacetate]"
assay_system = "hROMK (hKir1.1) (Homo sapiens (Human), UniProt P48048)"
measurement = 6.60

[[record]]
compound = "Cc1cc2c(cc1C(O)CN1CCN3C[C@@H](c4ccc(F)c(C#N)c4C)OC[C@@H]3C1)COC2=O (single isomer, unassigned) [Example 24, trifluoroacetate]"
assay_system = "hROMK (hKir1.1) (Homo sapiens (Human), UniProt P48048)"
measurement = 6.35

[[record]]
compound = "Cc1cc2c(cc1C(O)CN1CCN3C[C@@H](c4ccc(F)c(C#N)c4C)OC[C@@H]3C1)COC2=O (single isomer, unassigned) [Example 25, trifluoroacetate]"
assay_system = "hROMK (hKir1.1) (Homo sapiens (Human), UniProt P48048)"
measurement = 6.47

[[record]]
compound = "Cc1cc2c(cc1C(O)CN1CCN3C[C@H](c4ccc(F)c(C#N)c4C)OC[C@@H]3C1)COC2=O (single isomer, unassigned) [Example 27, trifluoroacetate]"
assay_system = "hROMK (hKir1.1) (Homo sapiens (Human), UniProt P48048)"
measurement = 6.51


---

# ASSAY SYSTEM: Kir1.1 (ROMK1) (Homo sapiens (Human), UniProt P48048)
# Sequence (P48048 whole entry, species assumed): as the sequence (P48048 whole entry) above
# MEASUREMENT DESCRIPTION: Electrophysiology Assay (whole cell voltage clamp, IonWorks Quattro)
# Format: cell-based
# RUN PARAMETERS: Chinese hamster ovary cells stably expressing Kir1.1; block during voltage step to 0 mV; read-out: Electrophysiology IC50
pIC50: −log10 of the molar value.
Each entry below carries its recorded pIC50.
MEASURED ENDPOINT: pIC50

[[record]]
molecule = "Cc1c([C@H]2CN3CCN(CCc4ccc5c(c4)COC5=O)C[C@H]3CN2)ccc(F)c1C#N [Example 104]"
measured_endpoint = "pIC50"
measurement = 6.40

[[record]]
molecule = "Cc1c([C@@H]2CN3CCN(CCc4ccc5c(c4Br)COC5=O)C[C@H]3CO2)ccc2c1COC2=O [Example 91]"
measured_endpoint = "pIC50"
measurement = 6.68

[[record]]
molecule = "Cc1c([C@@H]2CN3CCN(CCc4ccc5c(c4)COC5=O)C[C@H]3CO2)ccc2c1COC2=O [Example 64]"
measured_endpoint = "pIC50"
measurement = 7.40

[[record]]
molecule = "Cc1c(CCN2CCN3C[C@@H](c4ccc5c(c4C)COC5=O)OC[C@H]3C2)ccc2c1COC2=O [Example 68]"
measured_endpoint = "pIC50"
measurement = 6.85

[[record]]
molecule = "COc1cc(C(O)CN2CCN3C[C@@H](c4ccc5c(c4C)COC5=O)OC[C@@H]3C2)cc(F)c1C#N (stereo partly shown) [Example 48]"
measured_endpoint = "pIC50"
measurement = 6.68

[[record]]
molecule = "COc1cc([C@@H]2CN3CCN(CCc4ccc5c(c4C)COC5=O)C[C@@H]3CO2)ccc1C#N [Example 76]"
measured_endpoint = "pIC50"
measurement = 7.05

[[record]]
molecule = "Cc1c([C@H]2CN3CCN(CC(C)c4ccc5c(c4)COC5=O)C[C@H]3CO2)ccc2c1COC2=O (stereo partly shown) [Example 66]"
measured_endpoint = "pIC50"
measurement = 6.85


---

# ASSAY SYSTEM: Kir1.1 (ROMK1) (Homo sapiens (Human), UniProt P48048)
# MEASUREMENT DESCRIPTION: Electrophysiology Assay (whole cell voltage clamp, IonWorks Quattro)
# Assay type: cell-based
# RUN PARAMETERS: Electrophysiology IC50, Chinese hamster ovary cells stably expressing Kir1.1; block during voltage step to 0 mV
pIC50: −log10 of the molar value. Counter-ions that a name gives are not always drawn.
Each entry below carries its recorded pIC50.
MEASURED ENDPOINT: pIC50

[[record]]
compound = "Cc1cc2c(cc1C(O)CN1CCN3C[C@H](c4ccc(F)c(C#N)c4C)OC[C@@H]3C1)COC2=O (single isomer, unassigned) [Example 26, trifluoroacetate]"
assay_system = "Kir1.1 (ROMK1) (Homo sapiens (Human), UniProt P48048)"
measurement = 6.66

[[record]]
compound = "Cc1cc2c(cc1C(O)CN1CCN3C[C@@H](c4ccc(F)c(C#N)c4C)OC[C@@H]3C1)COC2=O (single isomer, unassigned) [Example 25, trifluoroacetate]"
assay_system = "Kir1.1 (ROMK1) (Homo sapiens (Human), UniProt P48048)"
measurement = 6.72

[[record]]
compound = "Cc1cc(-n2cnnn2)ncc1C(O)CN1CCN2C[C@@H](c3ccc(F)c(C#N)c3C)OC[C@@H]2C1 (single isomer, unassigned) [Example 19]"
assay_system = "Kir1.1 (ROMK1) (Homo sapiens (Human), UniProt P48048)"
measurement = 6.59

[[record]]
compound = "Cc1cc2c(cc1C(O)CN1CCN3C[C@@H](c4ccc(F)c(C#N)c4C)OC[C@@H]3C1)COC2=O (single isomer, unassigned) [Example 24, trifluoroacetate]"
assay_system = "Kir1.1 (ROMK1) (Homo sapiens (Human), UniProt P48048)"
measurement = 6.62

[[record]]
compound = "Cc1cc(-n2cnnn2)ncc1C(O)CN1CCN2C[C@@H](c3ccc(F)c(C#N)c3C)OC[C@@H]2C1 (single isomer, unassigned) [Example 20]"
assay_system = "Kir1.1 (ROMK1) (Homo sapiens (Human), UniProt P48048)"
measurement = 6.62

[[record]]
compound = "Cc1cc2c(cc1C(O)CN1CCN3C[C@H](c4ccc(F)c(C#N)c4C)OC[C@@H]3C1)COC2=O (single isomer, unassigned) [Example 27, trifluoroacetate]"
assay_system = "Kir1.1 (ROMK1) (Homo sapiens (Human), UniProt P48048)"
measurement = 6.62


---

# ASSAY SYSTEM: hROMK (hKir1.1) (Homo sapiens (Human))
# MEASUREMENT DESCRIPTION: Thallium Flux Assay (ROMK channel functional thallium flux, FLIPR-Tetra)
# Assay type: cell-based
# RUN PARAMETERS: HEK293 cells stably expressing hROMK (hKir1.1); read-out: Thallium Flux IC50
MEASURED ENDPOINT: IC50 (µM)

[[record]]
compound = "Cc1c([C@@H](O)CN2CCN3C[C@H](c4ccc(C#N)c(F)c4)OC[C@H]3C2)ccc2c1COC2=O [Example 28]"
assay_system = "hROMK (hKir1.1) (Homo sapiens (Human))"
value_units = "µM"
measurement = 0.19

[[record]]
compound = "Cc1c([C@@H](O)CN2CCN3C[C@@H](c4cc(F)c(C#N)c(F)c4)OC[C@@H]3C2)ccc2c1COC2=O [Example 52]"
assay_system = "hROMK (hKir1.1) (Homo sapiens (Human))"
value_units = "µM"
measurement = 0.41

[[record]]
compound = "COc1cc(C(O)CN2CCN3C[C@H](c4ccc5c(c4C)COC5=O)OC[C@H]3C2)c(F)cc1C#N (stereo partly shown) [Example 36]"
assay_system = "hROMK (hKir1.1) (Homo sapiens (Human))"
value_units = "µM"
measurement = 0.39

[[record]]
compound = "COc1c(CCN2CCN3C[C@H](c4ccc5c(c4C)COC5=O)OC[C@@H]3C2)ccc(C#N)c1F [Example 96]"
assay_system = "hROMK (hKir1.1) (Homo sapiens (Human))"
value_units = "µM"
measurement = 0.21


---

Each entry below carries its recorded pIC50.
# ASSAY SYSTEM: hROMK (hKir1.1) (Homo sapiens (Human), UniProt P48048)
# MEASUREMENT DESCRIPTION: Thallium Flux Assay (ROMK channel functional thallium flux, FLIPR-Tetra)
# Format: cell-based
# RUN PARAMETERS: HEK293 cells stably expressing hROMK (hKir1.1); read-out: Thallium Flux IC50
pIC50: −log10 of the molar value.
MEASURED ENDPOINT: pIC50

[[record]]
compound = "Cc1nc(-n2cnnn2)ccc1C(O)CN1CCN2C[C@@H](c3ccc(F)c(C#N)c3C)OC[C@@H]2C1 (single isomer, unassigned) [Example 21]"
measured_endpoint = "pIC50"
measurement = 6.59

[[record]]
compound = "COc1c(CCN2CCN3C[C@@H](c4ccc5c(c4C)COC5=O)OC[C@@H]3C2)ccc(C#N)c1F [Example 95]"
measured_endpoint = "pIC50"
measurement = 6.92

[[record]]
compound = "Cc1c([C@@H]2CN3CCN(CCc4ccc5c(c4Br)COC5=O)C[C@H]3CO2)ccc2c1COC2=O [Example 91]"
measured_endpoint = "pIC50"
measurement = 7.05

[[record]]
compound = "COc1cc(C(O)CN2CCN3C[C@@H](c4ccc5c(c4C)COC5=O)OC[C@@H]3C2)ccc1C#N (single isomer, unassigned) [Example 47]"
measured_endpoint = "pIC50"
measurement = 6.60

[[record]]
compound = "COc1cc([C@H]2CN3CCN(C[C@H](O)c4ccc5c(c4C)COC5=O)C[C@@H]3CO2)ccc1C#N [Example 1]"
measured_endpoint = "pIC50"
measurement = 6.66

[[record]]
compound = "COc1cc([C@@H]2CN3CCN(CCc4ccc5c(c4C)COC5=O)C[C@@H]3CO2)ccc1C#N [Example 76]"
measured_endpoint = "pIC50"
measurement = 6.36

[[record]]
compound = "Cc1c([C@@H]2CN3CCN(CC(O)c4ccc5c(c4)C[C@@H](C)OC5=O)C[C@H]3CO2)ccc2c1COC2=O (single isomer, unassigned) [Example 46]"
measured_endpoint = "pIC50"
measurement = 6.55

[[record]]
compound = "Cc1c([C@@H]2CN3CCN(CCc4ccc5c(c4)C[C@@H](C)OC5=O)C[C@H]3CO2)ccc2c1COC2=O [Example 87]"
measured_endpoint = "pIC50"
measurement = 6.96

[[record]]
compound = "Cc1c([C@@H]2CN3CCN(C[C@H](O)c4ccc5c(c4)COC5=O)C[C@@H]3CN2)ccc(F)c1C#N [Example 107]"
measured_endpoint = "pIC50"
measurement = 6.80

[[record]]
compound = "Cc1c([C@@H]2CN3CCN(CC(O)c4cccc(-n5cnnn5)c4)C[C@@H]3CO2)ccc(F)c1C#N (single isomer, unassigned) [Example 23]"
measured_endpoint = "pIC50"
measurement = 6.49

[[record]]
compound = "COc1cc(C(O)CN2CCN3C[C@@H](c4ccc5c(c4C)COC5=O)OC[C@@H]3C2)c(F)cc1C#N (single isomer, unassigned) [Example 37]"
measured_endpoint = "pIC50"
measurement = 6.33

[[record]]
compound = "Cc1c([C@@H]2CN3CCN(C[C@H](O)c4ccc5c(c4C)COC5=O)C[C@H]3CN2)ccc(F)c1C#N [Example 102]"
measured_endpoint = "pIC50"
measurement = 6.68

[[record]]
compound = "Cc1c([C@@H]2CN3CCN(CC(O)c4ccc5c(c4)C[C@H](C)OC5=O)C[C@H]3CO2)ccc2c1COC2=O (single isomer, unassigned) [Example 45]"
measured_endpoint = "pIC50"
measurement = 6.33

